We begin with a simple list: items and their reported TGI.
Tested on: PC-3 prostate
Assay: NCI tumour cell line growth inhibition, 48 h
observable: TGI (µM)

CC1(C)C(=O)/C(=C\c2ccco2)C[C@]2(C)[C@H]3CC=C4[C@@H]5C[C@](C)(C(=O)O)CC[C@]5(C)CC[C@@]4(C)[C@]3(C)CC[C@@H]12	23.1
CC(NC(=O)c1ccc(OP(=O)(OCC2=CC(=O)c3ccccc3C2=O)N(C)CCCCCl)cc1)c1ccc(OCC2CCCCC2)c(C(N)=O)c1 (stereo not given)	58.6
COC1CCC(OC2CC(C3(C)CCC4(CC(O)C(C)C(C(C)/C=C(\C)C(=O)C(C)CC(C)C(=O)O)O4)O3)OC3(OC(C4OC(O)(CO)C(C)CC4C)CC3C)C2C)OC1C (stereo not given)	3.14
NC1CCC(c2cc3ccccc3s2)(N2CCCCC2)CC1 (stereo not given)	3.59
CC(Nc1cc(Cl)cc(Cl)c1)c1ccncc1 (stereo not given)	36.7

====

Test system: SK-MEL-28 melanoma
Test: NCI tumour cell line growth inhibition, 48 h
observable: TGI (µM)

CCCCCCCCCCCC(=O)C1=C(O)C(O)CCC1=O (stereo unspecified)	38.6
OCC1OC(N2C=C(c3nc4ccccc4s3)C3C=CC=CC32)C(O)C1O (stereo unspecified)	27.8
O=C1CSC2(CCN(CCCN3c4ccccc4Sc4ccc(Cl)cc43)CC2)N1	28.9

====

Test system: HT29 colon
Experiment: NCI tumour cell line growth inhibition, 48 h
observable: TGI (µM)

[Cl][Sn]([c]1ccccc1)[c]1ccccc1	24.2
COC1CCC(OC2CC(C3(C)CCC4(CC(O)C(C)C(C(C)/C=C(\C)C(=O)C(C)CC(C)C(=O)O)O4)O3)OC3(OC(C4OC(O)(CO)C(C)CC4C)CC3C)C2C)OC1C (centres undefined)	2.19
COc1ccc2nc3c([N+](=O)[O-])ccc4c3c(c2c1)NCCN4C	12.4
Cc1nn(-c2ccccc2)c(C)c1/C=N/NC(=O)c1sc(=S)n(-c2ccccc2)c1N	19.7

====

Test system: A498 renal
Assay: NCI tumour cell line growth inhibition, 48 h
observable: TGI

O=C(O)c1[nH]c(C(=O)O)c(CC(F)(F)C(F)(F)C(F)(F)F)c1CC(F)(F)C(F)(F)C(F)(F)F	> 100 µM
CC(=O)Nc1ccc(Nc2nc(=O)[nH]c(=O)[nH]2)cc1	> 100 µM
Cc1cc(O)cc(C)c1/C=C/c1cncc(C(=O)N(C)C)c1	> 25 µM
NC(N)=NNC(=O)C(=O)O	> 100 µM
O=C1/C(=C\c2cccs2)Oc2ccccc21	> 100 µM
COc1cc2ccc3c4cc(OC)c(OCc5ccccc5)cc4cnc3c2cc1OC	> 100 µM
CN(C)c1ccc(/C=C2\N=C(c3ccccc3)N(c3nc4c(Cl)cc(Cl)cc4s3)C2=O)cc1	92.3 µM
N#C/C(=C(\O)C(=O)O)c1ccc(-c2cccc3ccccc23)cc1	> 100 µM
CN(C)CCNC(=O)c1cc([N+](=O)[O-])cc2ccc(-c3ccccc3)nc12	14.4 µM
O=S(=O)(O)c1ccc2cc(N=Nc3cc(S(=O)(=O)O)c4cccnc4c3O)ccc2c1	> 100 µM
COC(=O)/C(=N/NC(C)(C)C)C(C(=O)C=C(C)C)C(=O)C(=O)Nc1ccc(Cl)cc1C (stereo unspecified)	> 100 µM
Cc1ccc2[nH]c(=O)c(-c3cnc(=O)[nH]n3)c(O)c2c1	> 100 µM
CC/C=C\C[C@H](O)C/C=C1/C(=O)C=C[C@@H]1C/C=C\CCCC(N)=O	7.07 µM
O=C1c2cccc3cc([N+](=O)[O-])cc(c23)C(=O)N1CCCN1CCN(CCCN2C(=O)c3cccc4cc([N+](=O)[O-])cc(c34)C2=O)CC1	3.87 µM
COc1cccc(-c2cc(=O)c3cc(C)cnc3[nH]2)c1	> 100 µM
CC(C)(C)N=CN1CCC(C(c2ccccc2)c2ccccc2)CC1	> 100 µM
O=Nc1c2cccnc2n2nnc3ccc(Cl)cc3c12	10.3 µM
Cc1c2ncccc2c(C)c2c1[nH]c1ccccc12	25.2 µM
COc1ccc(-c2cc(-c3ccc(Nc4ccnc5cc(Cl)ccc45)cc3)nc(N)c2C#N)c2ccccc12	> 100 µM
NC(N)=N/N=C/c1c(-c2cc(Cl)sc2Cl)nc2n1CCS2	16.6 µM
CC(C)n1c(=O)c2nn3c(=O)n(C(C)C)c(=O)c3nn2c1=O	> 100 µM
